- Assayed Target: GST-Dm-Relish (Drosophila melanogaster, UniProt Q94527 99-473)
- Sequence: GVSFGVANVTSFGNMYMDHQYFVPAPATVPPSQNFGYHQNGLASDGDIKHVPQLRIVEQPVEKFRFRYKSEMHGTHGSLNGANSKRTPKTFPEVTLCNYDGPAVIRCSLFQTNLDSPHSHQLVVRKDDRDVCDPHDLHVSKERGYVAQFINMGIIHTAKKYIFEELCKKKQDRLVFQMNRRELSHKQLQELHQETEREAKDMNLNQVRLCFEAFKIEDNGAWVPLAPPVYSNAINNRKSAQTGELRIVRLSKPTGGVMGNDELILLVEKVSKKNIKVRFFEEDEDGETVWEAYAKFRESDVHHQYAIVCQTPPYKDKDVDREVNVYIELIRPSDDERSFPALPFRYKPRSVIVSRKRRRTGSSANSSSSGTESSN
- Protocol Text: protein-binding microarray (PBM); PBM: ~300 nM protein, 6 mM HEPES pH 7.8, 80 mM KCl, 0.5 mM EDTA, 0.5 mM EGTA, 6% glycerol, 35 ng/ul poly-dIdC, 1% milk, 1 h, room temperature; Ap Aiptasia and Nv Nematostella (sea anemones) / Co Capsaspora / Aq Amphimedon (sponge) / Dm Drosophila / Hu human; RHD is the Rel homology domain; high values mean tight binding
- Reported Conditions: dsDNA, one strand shown
Sorting guide: entries reporting binding signal beneath 5 z-score go in the y pile, the rest go in the n pile.

CCGATTAACATCAAAACTCCCCTTGATGTTAATCGGGTCTTGATTCGCTTGACGCTGCTG :: n
CCGATTAACATCAGGGGGTTAAATGATGTTAATCGGGTCTTGATTCGCTTGACGCTGCTG :: n
CCGATTAACATCACCCATTTCCCTGATGTTAATCGGGTCTTGATTCGCTTGACGCTGCTG :: y
CCGATTAACATCAGGGAATGTACTGATGTTAATCGGGTCTTGATTCGCTTGACGCTGCTG :: n
CCGATTAACATCAACAACCCCCCTGATGTTAATCGGGTCTTGATTCGCTTGACGCTGCTG :: n
CCGATTAACATCACGGGGGGGACTGATGTTAATCGGGTCTTGATTCGCTTGACGCTGCTG :: y
CCGATTAACATCAGGAGGTCCCCTGATGTTAATCGGGTCTTGATTCGCTTGACGCTGCTG :: y
CCGATTAACATCAATAATTCCCCTGATGTTAATCGGGTCTTGATTCGCTTGACGCTGCTG :: n
CCGATTAACATCACACCCCCCCGTGATGTTAATCGGGTCTTGATTCGCTTGACGCTGCTG :: y
